Experiment: AUC in rat at 10 mg/kg, po
Assay type: ADME, organism-based
Parameters: dose 10 mg/kg, route oral
Conditions: plasma
observable: AUC (µM·h)

Answered examples (5):
C=CCNC(=O)C(=O)C(CCC)NC(=O)[C@@H]1[C@@H]2[C@H](CN1C(=O)[C@@H](NC(=O)N[C@@H](CN1CCCNC1=O)C(C)(C)C)C(C)(C)C)C2(C)C (some centres undefined) = 0.07
C=CCNC(=O)C(=O)C(CCC)NC(=O)[C@@H]1[C@@H]2[C@H](CN1C(=O)[C@@H](NC(=O)N[C@@H](CN1CCC(C)(C)CC1=O)C(C)(C)C)C1CCCCC1)C2(C)C (some centres undefined) = 2.09
C=CCNC(=O)C(=O)C(CCC)NC(=O)[C@@H]1[C@@H]2[C@H](CN1C(=O)[C@@H](NC(=O)N[C@@H](CN1CCCCC1=O)C(C)(C)C)C1CCCCC1)C2(C)C (some centres undefined) = 0.7
C=CCNC(=O)C(=O)C(CCC)NC(=O)[C@@H]1[C@@H]2[C@H](CN1C(=O)[C@@H](NC(=O)N[C@@H](CN1CC3CCC(C3)C1=O)C(C)(C)C)C(C)(C)C)C2(C)C (some centres undefined) = 0.53
C=CCNC(=O)C(=O)C(CCC)NC(=O)[C@@H]1[C@@H]2[C@H](CN1C(=O)[C@@H](NC(=O)N[C@@H](CN1CCCCC1=O)C(C)(C)C)C1Cc3ccccc3C1)C2(C)C (some centres undefined) = 0.68

1: C=CCNC(=O)C(=O)C(CC1CC1)NC(=O)[C@@H]1[C@@H]2[C@H](CN1C(=O)[C@@H](NC(=O)N[C@@H](CN1CCC(C)(C)CC1=O)C(C)(C)C)C(C)(C)C)C2(C)C (some centres undefined)
2: C=CCNC(=O)C(=O)C(CC1CCC1)NC(=O)[C@@H]1[C@@H]2[C@H](CN1C(=O)[C@@H](NC(=O)N[C@@H](CN1CCC(C)(C)CC1=O)C(C)(C)C)C(C)(C)C)C2(C)C (some centres undefined)
3: C#CCCC(NC(=O)[C@@H]1[C@@H]2[C@H](CN1C(=O)[C@@H](NC(=O)N[C@@H](CN1CCC(C)(C)CC1=O)C(C)(C)C)C(C)(C)C)C2(C)C)C(=O)C(=O)NCC=C (some centres undefined)
4: C=CCNC(=O)C(=O)C(CCC)NC(=O)[C@@H]1[C@@H]2[C@H](CN1C(=O)[C@@H](NC(=O)N[C@@H](CN1CCC(C)(C)CC1=O)C(C)(C)C)C(C)(C)C)C2(C)C (some centres undefined)
Let's sort these by AUC, smallest first. Go ahead? Reply with the labels, ordered as the question asks.
3, 2, 4, 1

* * *

Assay: Inhibition of HCV NS4A-tethered single chain NS3 serine protease by spectrophotometric assay
Set-up: species or system Hepacivirus hominis
pKi: −log10 of the molar value.
observable: pKi

Answered examples (6):
C#CCCC(NC(=O)[C@@H]1[C@@H]2[C@H](CN1C(=O)[C@@H](NC(=O)N[C@@H](CN1CCC(C)(C)CC1=O)C(C)(C)C)C(C)(C)C)C2(C)C)C(=O)C(=O)NCC=C (stereo partly specified) = 8.30
C=CCNC(=O)C(=O)C(CCC)NC(=O)[C@@H]1[C@@H]2[C@H](CN1C(=O)[C@@H](NC(=O)N[C@@H](CN1CCC(C)(C)CC1=O)C(C)(C)C)C(C)(C)C)C2(C)C (stereo partly specified) = 7.77
C=CCNC(=O)C(=O)C(CCC)NC(=O)[C@@H]1[C@@H]2[C@H](CN1C(=O)[C@@H](NC(=O)N[C@@H](CN1Cc3ccccc3CC1=O)C(C)(C)C)C(C)(C)C)C2(C)C (stereo partly specified) = 7.72
CC(C)(C)NC(=O)N[C@H](C(=O)N1C[C@H]2[C@@H]([C@H]1C(=O)NC(CC1CCC1)C(=O)C(N)=O)C2(C)C)C(C)(C)C (stereo partly specified) = 7.85
C=CCNC(=O)C(=O)C(CCC)NC(=O)[C@@H]1[C@@H]2[C@H](CN1C(=O)[C@@H](NC(=O)N[C@@H](CN1Cc3ccccc3C1=O)C(C)(C)C)C(C)(C)C)C2(C)C (stereo partly specified) = 7.40
C=CCNC(=O)C(=O)C(CCC)NC(=O)[C@@H]1[C@@H]2[C@H](CN1C(=O)[C@@H](NC(=O)N[C@@H](CN(C)C(=O)C(F)(F)F)C(C)(C)C)C(C)(C)C)C2(C)C (stereo partly specified) = 7.38

P: C=CCNC(=O)C(=O)C(CCC)NC(=O)[C@@H]1[C@@H]2[C@H](CN1C(=O)[C@@H](NC(=O)N[C@@H](CN1CCCC1=O)C(C)(C)C)C(C)(C)C)C2(C)C (stereo partly specified)
Q: C=CCNC(=O)C(=O)C(CCC)NC(=O)[C@@H]1[C@@H]2[C@H](CN1C(=O)[C@@H](NC(=O)N[C@@H](CN1CCCCC1=O)C(C)(C)C)C1Cc3ccccc3C1)C2(C)C (stereo partly specified)
R: C=CCNC(=O)C(=O)C(CCC)NC(=O)[C@@H]1[C@@H]2[C@H](CN1C(=O)[C@@H](NC(=O)N[C@@H](CN1CCCNC1=O)C(C)(C)C)C(C)(C)C)C2(C)C (stereo partly specified)
S: C=CCNC(=O)C(=O)C(CCC)NC(=O)[C@@H]1[C@@H]2[C@H](CN1C(=O)[C@@H](NC(=O)N[C@@H](CN1CCC(C)(C)CC1=O)C(C)(C)C)C1CCCCC1)C2(C)C (stereo partly specified)
T: C=CCNC(=O)C(=O)C(CCC)NC(=O)[C@@H]1[C@@H]2[C@H](CN1C(=O)[C@@H](NC(=O)N[C@@H](CN1CCCCC1)C(C)(C)C)C(C)(C)C)C2(C)C (stereo partly specified)
Order field: pKi | Direction: descending (largest first) Reply with the labels, ordered as the question asks.
S, R, Q, P, T
